ASSAY_INFO: chemical genetic growth profiling, strain panel (AID 1159580);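 note: tested at 20 µM; growth read once vehicle control cultures reached saturation at 30 °C; 1 = growth at the plate median or of vehicle wells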
TEST_CONTEXT: S. cerevisiae deletion strains, growth OD, locus YNL233W, strain BNI4, stronger effect = lower value
Hit rate of the full screen: of about 5,500 compounds, about 2,000 (36%) were called active. Roughly 18% stayed inconclusive and do not appear here. This is one part of the list.
# note: exactly 1 is not below, so it is 0.0; use 1.0 for normalized growth strictly under it

>  <COMPOUND>
CCOC(=O)CCCCCCCCCCCCC1C=CCC1 (stereo not given)

>  <ASSIGNED_CATEGORY>
1.0

$$$$

Consider the additional compound presented here.
Query: Take the compound CCN(CC)CCOC(=O)C(Cc1cccc2ccccc12)CC1CCCO1 (stereo not given) and say whether its normalized growth is less than 1.
Reply: 0.0
